Entries and their measured IC50 follow.
System name: hPARG (Homo sapiens, UniProt Q86W56, A967T/C963S/D927K/H446G/I916T/L447S/L473S/M841I/N479S/R811K/S802A/S858P/T924D)
Construct: human PARG (448-976 [H446G, L447S, L473S, N479S); 6His-TwinStrep (protease-cleavable) (N, cleaved yes); host or cells: E. coli BL21 (DE3)
Sequence (Q86W56 446-976 H446G/L447S/L473S/N479S/S802A/R811K/M841I/S858P/I916T/T924D/D927K/C963S/A967T): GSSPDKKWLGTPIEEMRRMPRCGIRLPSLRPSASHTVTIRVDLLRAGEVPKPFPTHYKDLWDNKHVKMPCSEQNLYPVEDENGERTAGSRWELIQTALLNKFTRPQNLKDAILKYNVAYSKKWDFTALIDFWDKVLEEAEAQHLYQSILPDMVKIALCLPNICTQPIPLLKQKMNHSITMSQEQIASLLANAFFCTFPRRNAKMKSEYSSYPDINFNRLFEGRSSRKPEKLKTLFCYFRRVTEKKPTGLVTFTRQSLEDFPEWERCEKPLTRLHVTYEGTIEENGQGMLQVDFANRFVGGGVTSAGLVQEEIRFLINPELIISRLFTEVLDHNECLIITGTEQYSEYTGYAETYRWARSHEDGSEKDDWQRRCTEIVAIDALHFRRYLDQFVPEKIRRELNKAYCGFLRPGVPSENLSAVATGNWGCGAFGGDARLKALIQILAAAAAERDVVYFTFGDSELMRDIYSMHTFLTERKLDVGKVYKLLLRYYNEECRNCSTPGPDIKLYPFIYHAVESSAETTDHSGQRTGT
Assay remarks: PARG enzymatic IC50 assay (absorbance, ADP-ribose-pNP substrate)
Format: biochemical
Assay context: 2 hours incubation of enzyme with compound; 30 nM hPARG, 800 μM ADP-pNP; read-out: IC50 in μM determined in PARG enzymatic assay (PARG protein and 2 hours incubation)
Procedure: A codon optimized gene encoding human PARG (448-976 [H446G, L447S, L473S, N479S, S802A, R811K, M841I, S858P, 1916T, T924D, D927K, C963S, A967T]) was synthesized by Genscript, and cloned into pET15b (Ncol/BamHI) with an N-terminal, Thrombin protease cleavable 6His-TwinStrep tag. […] PARG enzyme as incubated with compound or vehicle (DMSO) for 15 minutes or 2 hours in a 384 well plate. After adding the PARG substrate ADP-ribose-pNP, the plate was read for absorbance intensity at 405 nm. […]

Past entries and their recorded results:
So what does the record say about IC50 for Cc1ccc(-c2ncn3c(N4CCN(C(=O)N(C)C)CC4)cc(S(=O)(=O)NC4(C)CC4)cc23)cn1 [Example 1] ?
0.064 µM

So what does the record say about IC50 for CN(C)C(=O)N1CCN(c2cc(S(=O)(=O)NC3(C)CC3)cc3c(-c4nnc(C(F)F)o4)cnn23)CC1 [Example 11] ?
0.098 µM

So what does the record say about IC50 for COC(=O)c1cnn2c(N3CCN(C(=O)N(C)C)CC3)cc(S(=O)(=O)NC3(C)CC3)cc12 [Example 8] ?
0.043 µM

So what does the record say about IC50 for Cc1nnc(-c2cnn3c(N4CCN(C(=O)N(C)C)CC4)cc(S(=O)(=O)NC4(C)CC4)cc23)s1 [Example 12] ?
0.038 µM

So what does the record say about IC50 for Cc1ccc(-c2cnn3c(N4CCN(C(=O)N(C)C)CC4)cc(S(=O)(=O)NC4(C)CC4)cc23)cn1 [Example 5] ?
0.054 µM

Next:
So what does the record say about IC50 for CN(C)C(=O)N1CCN(c2cc(S(=O)(=O)NC3(C)CC3)cc3c(-c4ccc(C(F)F)nc4)cnn23)CC1 [Example 7] ?
0.028 µM

So what does the record say about IC50 for CN(C)C(=O)N1CCN(c2cc(S(=O)(=O)NC3(C)CC3)cc3c(-c4nnc(C(F)F)s4)cnn23)CC1 [Example 10] ?
0.042 µM

So what does the record say about IC50 for CN(C)C(=O)N1CCN(c2cc(S(=O)(=O)NC3(C)CC3)cc3c(-c4ccc(C(F)F)nc4)ncn23)CC1 [Example 3] ?
0.066 µM
